- Tested on: gastric secretion in pylorus-ligated Sprague-Dawly rats
- experiment-description: Inhibition of gastric secretion (pylorus-ligated rats, Shay method)
- Assay type: in vivo
- settings: 20 mg/kg intraduodenally, 5 hours, gastric juice amount relative to omeprazole, equation (I)
Lab note: cut-off is 0.9. Strictly less in Relative volume is y. Exactly 0.9 or more is n.

INSERT INTO results (molecule, group_label) VALUES
  ('Cc1c(COC(=O)C(C)C)nc(Nc2ccc(F)cc2)nc1N1CCc2ccccc2C1C (centres unmarked)', 'y');

Ask | Please check: Relative volume for COCc1nc(Nc2ccc(F)cc2)nc(N2CCc3ccccc3C2)c1C.Cl , strictly under 0.9 or not?
Reply | y

Ask | hey, is Relative volume for Cc1c(COC(=O)[C@@H](N)Cc2ccccc2)nc(Nc2ccc(F)cc2)nc1N1CCc2ccccc2C1C.Cl.Cl (some centres unmarked) lower than 0.9 or not?
Reply | n

* * *

# key: entry, value: Relative volume
- Test system: gastric secretion in pylorus-ligated Sprague-Dawly rats
- experiment-description: Inhibition of gastric secretion (pylorus-ligated rats, Shay method)
- Type: in vivo
- settings: 20 mg/kg intraduodenally, 5 hours, gastric juice amount relative to omeprazole, equation (I)
Number, no unit, nothing else.

Example cases with answers are listed next.
INSERT INTO measurements (molecule, numeric_result) VALUES
  ('Cc1nc(NCC(C)C)nc(N2CCc3ccccc3C2C)c1C (centres unmarked)', 0.93),
  ('COCCNc1nc(C)c(C)c(N2CCc3ccccc3C2)n1.Cl', 0.45),
  ('Cc1csc(Nc2nc(C)c(C)c(N3CCc4ccccc4C3C)n2)n1.Cl (centres unmarked)', 0.59),
  ('Cc1c(COC(=O)CN2CCOCC2)nc(Nc2ccc(F)cc2)nc1N1CCc2ccccc2C1C.Cl.Cl (centres unmarked)', 0.87);

Next molecule, Relative volume to be filled in.
Ask | I have this molecule here, COCc1nc(Nc2ccccc2)nc(N2CCc3ccccc3C2C)c1C.Cl (centres unmarked) , and I need its recorded Relative volume.
Reply | 1.06

* * *

- tgt: proton pump (H+/K+-ATPase) (UniProt P19156)
- experiment-description: Inhibition of proton pump (H+/K+-ATPase activity)
- settings: K+-stimulated proton pump activity, pH 6.0, 37° C., 30 minutes preincubation; read-out: IC50 (concentration inhibiting 50% of the proton pump activity)
# maps each entry to its pIC50
When answering, recall that pIC50 equals minus log10 of the concentration in mol/L, and write that number alone.

Would you please look over these solved cases?
INSERT INTO results (compound, numeric_result) VALUES
  ('Cc1nc(Nc2ccc(F)cc2)nc(N2CCc3cc(O)ccc3C2C)c1C.Cl (stereo not drawn) [Example 36, hydrochloride]', 6.51),
  ('Cc1ccccc1Nc1nc(CO)c(C)c(N2CCc3ccccc3C2C)n1.Cl (stereo not drawn) [Example 34, hydrochloride]', 6.37);

Ask | // returns reported pIC50 for input COCc1nc(Nc2ccc(F)cc2C)nc(N2CCc3ccccc3C2)c1C.Cl [Example 27, hydrochloride]
Reply | 5.81

* * *

- Test system: gastric secretion in pylorus-ligated Sprague-Dawly rats
- experiment-description: Inhibition of gastric secretion (pylorus-ligated rats, Shay method)
- Format: in vivo
- settings: 20 mg/kg intraduodenally, 5 hours, gastric juice amount relative to omeprazole, equation (I)
Quick list: Relative volume per entry.
// return a plain number; no unit text

Take a look at these entries with their results.
INSERT INTO assay_data (molecule, test_readout, numeric_result) VALUES
  ('CC(=O)OCc1nc(Nc2ccc(F)cc2)nc(N2CCc3ccccc3C2C)c1C (stereo not shown) [Example 50]', 'Relative volume', 1.01),
  ('COCc1nc(Nc2ccc(F)cc2C)nc(N2CCc3ccccc3C2)c1C.Cl [Example 27]', 'Relative volume', 0.99),
  ('CCC(=O)OCc1nc(Nc2ccc(F)cc2)nc(N2CCc3ccccc3C2C)c1C (stereo not shown) [Example 51]', 'Relative volume', 1.09);

Ask | Record request: Relative volume value, item Cc1c(COC(=O)C(Cc2cn(Cc3ccccc3)cn2)NC(=O)OC(C)(C)C)nc(Nc2ccc(F)cc2)nc1N1CCc2ccccc2C1C (stereo not shown) [Example 144]
Reply | 0.90
